Where these numbers come from: the Kinase Knowledgebase extract (Sharma et al. 2016)

Reported IC50 values follow for various molecules
# assaySystem: PIK3CD (Human) (UniProt O00329)
# Sequence (O00329 whole entry, looked up): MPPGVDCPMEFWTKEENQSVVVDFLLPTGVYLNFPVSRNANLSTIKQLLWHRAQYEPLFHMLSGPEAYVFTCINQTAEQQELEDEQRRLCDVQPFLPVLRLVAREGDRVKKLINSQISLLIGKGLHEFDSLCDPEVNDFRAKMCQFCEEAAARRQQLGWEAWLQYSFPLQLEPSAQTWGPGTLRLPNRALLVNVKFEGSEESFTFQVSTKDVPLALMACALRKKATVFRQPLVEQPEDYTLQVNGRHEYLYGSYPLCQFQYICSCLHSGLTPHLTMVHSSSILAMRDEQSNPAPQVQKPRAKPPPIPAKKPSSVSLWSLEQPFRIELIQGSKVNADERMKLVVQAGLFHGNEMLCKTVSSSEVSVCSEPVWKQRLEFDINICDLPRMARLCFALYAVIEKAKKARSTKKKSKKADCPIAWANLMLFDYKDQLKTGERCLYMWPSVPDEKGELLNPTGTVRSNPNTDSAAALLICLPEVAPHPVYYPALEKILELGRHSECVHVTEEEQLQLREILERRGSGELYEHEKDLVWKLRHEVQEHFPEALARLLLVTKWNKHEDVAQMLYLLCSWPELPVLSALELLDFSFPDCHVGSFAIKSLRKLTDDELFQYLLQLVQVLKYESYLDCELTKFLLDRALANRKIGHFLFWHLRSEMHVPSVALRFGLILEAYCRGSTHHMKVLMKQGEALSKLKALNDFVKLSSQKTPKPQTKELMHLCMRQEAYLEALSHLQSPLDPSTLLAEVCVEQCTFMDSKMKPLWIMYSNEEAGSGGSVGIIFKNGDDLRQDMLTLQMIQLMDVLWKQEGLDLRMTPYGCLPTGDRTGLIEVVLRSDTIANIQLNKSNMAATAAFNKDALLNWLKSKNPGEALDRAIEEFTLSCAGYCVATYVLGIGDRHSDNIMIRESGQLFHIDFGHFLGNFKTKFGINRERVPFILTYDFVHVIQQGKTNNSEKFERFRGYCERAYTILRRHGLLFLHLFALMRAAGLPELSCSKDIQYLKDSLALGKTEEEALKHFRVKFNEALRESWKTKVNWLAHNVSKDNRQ
measure: IC50 (nM)

INSERT INTO measurements (molecule, unitstext, comparisonoperator, observedvalue) VALUES
  ('CCn1c(-c2cnc(OC)c(F)c2)nc2c(O[C@H]3CCN(C(=O)c4ccn(C)n4)C3)ncnc21', 'nM', '<', 1),
  ('CCn1ncc(-c2nc3c(O[C@H]4CCN(C(=O)c5cn(C)nn5)C4)ncnc3n2C)c1C', 'nM', '=', 5.2),
  ('CCn1c(C(=O)NCC(F)(F)F)nc2c(O[C@H]3CCN(C(=O)OC(C)(C)C)C3)ncnc21', 'nM', '=', 31),
  ('CCn1c(-c2ccc(OC(F)F)nc2)nc2c(O[C@@H]3CCN(C(=O)C4CC4)C3)ncnc21', 'nM', '=', 14),
  ('CCn1ncc(-c2nc3c(O[C@H]4CCN(c5ncnc6sccc56)C4)ncnc3n2C)c1C', 'nM', '=', 5.7),
  ('CCn1ncc(-c2nc3c(O[C@H]4CCN(C(=O)c5cnn6cc[nH]c56)C4)ncnc3n2C)c1C', 'nM', '=', 270),
  ('CCC(=O)N1CC[C@H](Oc2ncnc3c2nc(-c2cnc(C(C)(C)C)s2)n3C)C1', 'nM', '=', 1.6),
  ('CCn1ncc(-c2nc3c(O[C@H]4CCN(C(=O)c5cn[nH]c5)C4)ncnc3n2C)c1C', 'nM', '=', 16),
  ('CCn1c(-c2ccc(C(F)(F)F)cc2)nc2c(O[C@H]3CCN(C(=O)C4CC4)C3)ncnc21', 'nM', '=', 3.4),
  ('CCC(=O)N1CC[C@H](Oc2ncnc3c2nc(-c2cnc(C)nc2)n3C)C1', 'nM', '=', 36),
  ('CCn1ncc(-c2nc3c(O[C@H]4CCN(C(=O)c5ccccn5)C4)ncnc3n2C)c1C', 'nM', '=', 27),
  ('CCn1c(-c2cnc(C)nc2)nc2c(O[C@H]3CCN(c4ccc(F)cc4)C3)ncnc21', 'nM', '=', 18),
  ('CCn1c(-c2cnc(C)nc2)nc2c(O[C@H]3CCN(c4cccnc4)C3)ncnc21', 'nM', '=', 10),
  ('CCn1ncc(-c2nc3c(O[C@H]4CCN(C(=O)c5cccc6ccccc56)C4)ncnc3n2C)c1C', 'nM', '=', 67),
  ('CCn1c(-c2cnc(C)nc2)nc2c(O[C@H]3CCN(C(=O)N4CC5CC5C4)C3)ncnc21 (some centres not stated)', 'nM', '=', 5.7),
  ('CCn1c(-c2cnc(C)nc2)nc2c(O[C@H]3CCN(c4ccccc4C)C3)ncnc21', 'nM', '=', 85),
  ('CCC(=O)N1CC[C@H](Oc2ncnc3c2nc(-c2ccc4cn[nH]c4c2)n3C)C1', 'nM', '=', 7.2),
  ('CCC(=O)N1CCC(Cc2ncnc3c2nc(-c2cnn(CC)c2C)n3C)C1 (configuration not stated)', 'nM', '=', 250),
  ('CCn1ncc(-c2nc3c(O[C@H]4CCN(C(C)c5ccccc5)C4)ncnc3n2C)c1C (some centres not stated)', 'nM', '=', 270),
  ('CCn1ncc(-c2nc3c(O[C@H]4CCN(C(=O)C5CCOCC5)C4)ncnc3n2C)c1C', 'nM', '=', 4.3),
  ('CCC(=O)N1CC[C@H](Oc2ncnc3c2nc(-c2ccc4[nH]ncc4c2)n3C)C1', 'nM', '=', 44),
  ('CCn1c(-c2cnc(C)nc2)nc2c(O[C@H]3CCN(C(=O)[C@H]4CCC[C@H]4N)C3)ncnc21', 'nM', '=', 25),
  ('CCn1ncc(-c2nc3c(O[C@H]4CCN(C(=O)c5nnc6n5CCCC6)C4)ncnc3n2C)c1C', 'nM', '=', 240),
  ('CCn1ncc(-c2nc3c(O[C@H]4CCN(C(=O)c5cnn6ccccc56)C4)ncnc3n2C)c1C', 'nM', '=', 130),
  ('CCC(=O)N1CC[C@H](Oc2ncnc3c2nc(C(F)(F)F)n3CC)C1', 'nM', '=', 99),
  ('CCn1c(-c2cnc(C)nc2)nc2c(O[C@H]3CCN(c4ccccc4)C3)ncnc21', 'nM', '=', 9.1),
  ('CCC(=O)N1CC[C@H](Oc2ncnc3c2nc(C2=CCOCC2)n3CC)C1', 'nM', '=', 93),
  ('CCn1c(-c2cnc(C)nc2)nc2c(O[C@H]3CCN(C(=O)N(C)c4ccccc4)C3)ncnc21', 'nM', '=', 32),
  ('CCn1ncc(-c2nc3c(O[C@H]4CCN(Cc5ccc[nH]5)C4)ncnc3n2C)c1C', 'nM', '=', 440),
  ('CCn1c(-c2cnc(OC)c(C)c2)nc2c(O[C@H]3CCN(C(=O)OC(C)(C)C)C3)ncnc21', 'nM', '=', 0.7),
  ('CCn1c(-c2cnc(C)nc2)nc2c(O[C@H]3C[C@H](NS(=O)(=O)CC)C3)ncnc21', 'nM', '=', 150),
  ('CCn1ncc(-c2nc3c(O[C@H]4CCN(C(=O)c5oc(C)nc5C)C4)ncnc3n2C)c1C', 'nM', '=', 3.7),
  ('CCn1ncc(-c2nc3c(O[C@H]4CCN(C(=O)c5nonc5C)C4)ncnc3n2C)c1C', 'nM', '=', 26),
  ('Cn1c(-c2cn[nH]c2)nc2c(O[C@H]3CCN(C(=O)OC(C)(C)C)C3)ncnc21', 'nM', '=', 28),
  ('CCC(=O)N1CC[C@H](Oc2ncnc3c2nc(-c2cnc(OC)c(NS(C)(=O)=O)c2)n3C)C1', 'nM', '=', 2),
  ('CCn1ncc(-c2nc3c(O[C@H]4CCN(C(=O)c5ccc(C)nc5)C4)ncnc3n2C)c1C', 'nM', '=', 70),
  ('CCC(=O)N1CC[C@H](Oc2ncnc3c2nc(-c2ccc(C)nc2)n3C)C1', 'nM', '=', 66);
